Value source: ChEMBL document CHEMBL1159121

test system: A-375; assay: Antiproliferative activity against human A375 cells after 48 hrs by SRB assay; format: functional, cell-based; settings: A-375, 48 h
pIC50: −log10 of the molar value.
Each entry gets -1 if its pIC50 stays under 5, and 1 if its pIC50 is 5 or above.

>  <molecule>
CCCCCCCCCCCCCCCCNC(=O)[C@@H]1CSC(c2ccc(OC)cc2)N1 (mixture of isomers)

>  <label>
1

$$$$
>  <molecule>
CCCCCCCCCCCCCCCCCCNC(=O)[C@@H]1CSC(c2ccc(OC)c(OC)c2)N1 (mixture of isomers)

>  <label>
1

$$$$
>  <molecule>
CCCCCCCCCCCCCCCCNC(=O)[C@@H]1CSC(c2ccccc2OC)N1 (mixture of isomers)

>  <label>
1

$$$$
>  <molecule>
CCCCCCCCC/C=C\CCCCCCCNC(=O)[C@@H]1CSC(c2ccccc2)N1 (mixture of isomers)

>  <label>
1

$$$$
>  <molecule>
CC(=O)Nc1ccc(C2N[C@H](C(=O)NC3C4CC5CC(C4)CC3C5)CS2)cc1 (mixture of isomers)

>  <label>
-1

$$$$
>  <molecule>
CCCCCCCCCCCCCCCCNC(=O)[C@@H]1CSC(c2cccc(OC)c2)N1 (mixture of isomers)

>  <label>
1

$$$$

###

test system: RH7777; assay: Cytotoxicity against rat RH7777 cells after 96 hrs by SRB assay; type: cell-based; conditions: RH7777, 96 h
pIC50: −log10 of the molar value.
measured.metric: pIC50

>  <compound>
CCCCCCCCC/C=C\CCCCCCCNC(=O)[C@@H]1CSC(c2ccc(OC)c(OC)c2)N1 (mixture of isomers)

>  <system>
RH7777

>  <assay.result>
5.00

$$$$
>  <compound>
CCCCCCCCCCCCNC(=O)[C@@H]1CSC(c2ccc(N)cc2)N1 (mixture of isomers)

>  <system>
RH7777

>  <assay.result>
5.14

$$$$
>  <compound>
CCCCCCCCCCCCCCCCNC(=O)[C@@H]1CSC(c2ccc(N(C)C)cc2)N1 (mixture of isomers)

>  <system>
RH7777

>  <assay.result>
5.00

$$$$
>  <compound>
CCCCCCCCCCCCCCCCNC(=O)[C@@H]1CSC(c2ccc(N)cc2)N1 (mixture of isomers)

>  <system>
RH7777

>  <assay.result>
5.03

$$$$
>  <compound>
CCCCCCCCCCCCCCCCNC(=O)[C@@H]1CSC(c2ccc(NC(C)=O)cc2)N1C(C)=O (mixture of isomers)

>  <system>
RH7777

>  <assay.result>
4.89

$$$$
>  <compound>
CCCCCCCCCCCCCCCCCCN(C)C(=O)[C@@H]1CSC(c2ccc(NC(C)=O)cc2)N1 (mixture of isomers)

>  <system>
RH7777

>  <assay.result>
5.04

$$$$
>  <compound>
CC(=O)Nc1ccc(C2N[C@H](C(=O)Nc3ccc(-c4ccccc4)cc3)CS2)cc1 (mixture of isomers)

>  <system>
RH7777

>  <assay.result>
5.02

$$$$
>  <compound>
CCCCCCCCC/C=C/CCCCCCCNC(=O)[C@@H]1CSC(c2ccc(OC)c(OC)c2)N1 (mixture of isomers)

>  <system>
RH7777

>  <assay.result>
5.03

$$$$
>  <compound>
CCCCCCCCC/C=C/CCCCCCCNC(=O)[C@@H]1CSC(c2ccccc2)N1 (mixture of isomers)

>  <system>
RH7777

>  <assay.result>
5.05

$$$$
>  <compound>
CCCCCCCCCCCCCCCCNC(=O)[C@@H]1CSC(c2ccccc2NC(C)=O)N1 (mixture of isomers)

>  <system>
RH7777

>  <assay.result>
4.88

$$$$
>  <compound>
CCCCCCCCCCCCCCCCNC[C@@H]1CSC(c2ccc(NC(C)=O)cc2)N1 (mixture of isomers)

>  <system>
RH7777

>  <assay.result>
5.10

$$$$
>  <compound>
CCCCCC/C=C\CCCCCCCCNC(=O)[C@@H]1CSC(c2ccc(NC(C)=O)cc2)N1 (mixture of isomers)

>  <system>
RH7777

>  <assay.result>
5.12

$$$$
>  <compound>
CCCCCCCCCCCCCCCCNC(=O)[C@@H]1CSC(c2ccc(NC(=O)CCl)cc2)N1 (mixture of isomers)

>  <system>
RH7777

>  <assay.result>
5.03

$$$$
